Biological target: Voltage-dependent calcium channel gamma-2 subunit (Mus musculus) + Glutamate receptor 2 (Rattus norvegicus) (UniProt O88602+P19491)
Sequence (O88602 whole entry, looked up): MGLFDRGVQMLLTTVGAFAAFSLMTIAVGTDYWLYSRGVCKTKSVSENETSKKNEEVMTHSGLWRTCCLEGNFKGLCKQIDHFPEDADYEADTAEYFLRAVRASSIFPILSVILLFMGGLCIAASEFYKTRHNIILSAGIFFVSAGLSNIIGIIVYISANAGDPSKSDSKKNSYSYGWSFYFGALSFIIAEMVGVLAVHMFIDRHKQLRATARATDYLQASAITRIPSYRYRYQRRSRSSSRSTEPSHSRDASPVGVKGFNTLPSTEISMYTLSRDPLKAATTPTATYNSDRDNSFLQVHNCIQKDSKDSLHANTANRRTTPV
Sequence (P19491 whole entry, looked up): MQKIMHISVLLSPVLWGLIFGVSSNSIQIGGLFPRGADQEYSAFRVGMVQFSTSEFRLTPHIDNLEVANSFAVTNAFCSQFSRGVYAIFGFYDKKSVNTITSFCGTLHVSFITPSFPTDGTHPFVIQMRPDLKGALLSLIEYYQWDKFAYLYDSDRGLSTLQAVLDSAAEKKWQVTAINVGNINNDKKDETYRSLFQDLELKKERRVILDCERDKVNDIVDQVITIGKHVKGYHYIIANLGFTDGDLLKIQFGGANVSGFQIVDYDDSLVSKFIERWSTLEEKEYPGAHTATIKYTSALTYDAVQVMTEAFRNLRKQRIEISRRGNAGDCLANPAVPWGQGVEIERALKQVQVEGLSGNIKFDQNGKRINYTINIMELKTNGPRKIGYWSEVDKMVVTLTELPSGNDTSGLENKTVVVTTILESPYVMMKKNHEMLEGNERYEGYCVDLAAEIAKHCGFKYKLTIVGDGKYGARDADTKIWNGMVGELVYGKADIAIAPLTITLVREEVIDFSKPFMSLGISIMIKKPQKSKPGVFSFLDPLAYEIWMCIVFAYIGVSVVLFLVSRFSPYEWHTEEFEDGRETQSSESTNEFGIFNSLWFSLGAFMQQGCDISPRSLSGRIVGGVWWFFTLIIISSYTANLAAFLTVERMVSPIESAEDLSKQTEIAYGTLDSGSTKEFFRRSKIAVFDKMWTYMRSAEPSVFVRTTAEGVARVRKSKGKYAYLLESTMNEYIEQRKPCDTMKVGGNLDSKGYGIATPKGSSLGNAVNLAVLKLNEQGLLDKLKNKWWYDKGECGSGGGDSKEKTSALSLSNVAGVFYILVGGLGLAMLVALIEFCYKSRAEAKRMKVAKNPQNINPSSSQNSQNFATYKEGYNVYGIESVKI
Test: modulators of GluA2-stargazin AMPA receptor complexes, primary screen, cell-based, membrane potential dye (AID 1259245)
Details: HEK293 GluA2+stargazin, membrane potential dye (FDSS), glutamate EC50, at 30 µM, hits were called plate by plate, in both directions; compound-alone response (agonism)
Hit rate of the full screen: of about 40,000 compounds, about 1,400 (3.5%) were called active. What follows is part of a selection rich in actives, with near analogues and random picks from the rest.
Lab note - cut at 0.06 for compound max-min signal: 1 if strictly below, -1 if not.

Input line: A record lists Cc1cc(NC(=O)C(C)Oc2ccccc2)n(-c2nc3c(cnn3-c3ccc(C)c(C)c3)c(=O)[nH]2)n1 (stereo not given) . Is its compound max-min signal below 0.06?
Output line: -1

Input line: What do we get for `CC(C)c1ccccc1NC(=O)Cc1csc(NC(=O)c2ccc(=O)[nH]c2)n1` ?
Output line: -1

Input line: Can you check CC1CC(=O)Nc2c1c(NC(=O)c1ccc3c(c1)OCO3)nn2C (stereo not given) next?
Output line: -1

Input line: Ok, now `COc1ccc(CC(=O)NCCOc2cc(C)cc(C)c2)cc1OC`
Output line: -1

Input line: Repeat with `O=C(NCC1CCN(Cc2ccsc2)CC1)C(=O)Nc1ccon1`
Output line: -1

Input line: Again, but for `COc1cccc(CNC(=O)C(=O)Nc2cc([N+](=O)[O-])ccc2C)c1`
Output line: -1

Input line: Do the same for `O=C(NNC(=O)c1ccc(=O)n(Cc2ccccc2)c1)c1ccc(F)c(F)c1` please
Output line: -1

Input line: Another compound to look at: `Cc1ccccc1C(=O)Nn1cnc2c(cnn2C(C)(C)C)c1=O`
Output line: 1
